// Growth Rate lookup, one value per entry
- System: Fibroblast
- PROTOCOL DESCRIPTION: Incucyte cell viability with human fibroblast; also: filed as whole numbers so only -1 and 0 and 1 occur
- Format: toxicity, cell-based
- CONDITION INFO: 0 h, 10 µM, compound concentration 10 uM, replicate number 2, timepoint 0 hours

Some solved cases for reference:
- COMPOUND: "CC(=O)N1CCC(c2ccc(C(=O)NC(=N)N)cc2C(F)(F)F)CC1 [BI 9627]"
  Growth Rate: 1
- COMPOUND: "COc1cc2ncnc(Nc3ccc(F)c(Cl)c3)c2cc1NC(=O)/C=C/CN1CCCCC1 [DACOMITINIB ANHYDROUS]"
  Growth Rate: 1
- COMPOUND: "COc1ccc(S(=O)(=O)N(CCO)c2ccccc2CN(C)C/C=C/c2ccc(Cl)cc2)cc1.O=P(O)(O)O"
  Growth Rate: 1
- COMPOUND: "Cc1ccc2nc(NCCN)c3ncc(C)n3c2c1.O=C(O)C(F)(F)F.O=C(O)C(F)(F)F"
  Growth Rate: 0
- COMPOUND: "Cc1ccc2nc(CNCCCOc3ccccc3)cc(O)c2c1 [UCSF924]"
  Growth Rate: 1
- COMPOUND: "Cn1cc(CCn2cnc(-c3cnn(C)c3)c2-c2ccc(C#N)cc2)cn1"
  Growth Rate: 0

Item Cc1c(C(=O)O)cc(-c2ccc(C3CCNCC3)cc2)c2ccc(-c3ccc(C(F)(F)F)cc3)cc12.Cl has what recorded Growth Rate? 1

What do you have for C[C@]12CCC(=O)C=C1CC[C@@H]1[C@@H]2[C@@H](O)C[C@]2(C=O)[C@@H](C(=O)CO)CC[C@@H]12 [ALDOSTERONE] ? 1

* * *

- Test system: HEK-293T
- PROTOCOL DESCRIPTION: Incucyte cell viability with HEK293T; also: filed as whole numbers so only -1 and 0 and 1 occur
- Type: toxicity, cell-based
- CONDITION INFO: human, 12 h, 10 µM, compound concentration 10 uM, replicate number 1, timepoint 12 hours
RESULT TYPE: Growth Rate
Respond using a number only.

Worked examples, 3 molecules total:
- MOLECULE: "CCN(CC)S(=O)(=O)Nc1cccc(-c2ccc3c(NC(=O)C4CC4)n[nH]c3c2)c1"
  Growth Rate: 0
- MOLECULE: "Cc1ccc2nc(CNCCCOc3ccccc3)cc(O)c2c1 [UCSF924]"
  Growth Rate: 0
- MOLECULE: "Cc1cnc(Nc2ccc(F)cc2Cl)nc1-c1c[nH]c(C(=O)N[C@H](CO)c2cccc(Cl)c2)c1"
  Growth Rate: 0

Switching to the query record.
Look up Growth Rate for this molecule: CC(C)(C(=O)O)c1ccc(C(O)CCCN2CCC(C(O)(c3ccccc3)c3ccccc3)CC2)cc1.Cl (centres undefined) [FEXOFENADINE HYDROCHLORIDE] 1

* * *

- Test system: U2OS
- PROTOCOL DESCRIPTION: Multiplex assay against U2OS
- Assay type: toxicity, cell-based
- CONDITION INFO: human, 12 h, 1 µM, compound concentration 1 uM, replicate 1
Given measured Population Tubulin-Different-Phenotype (%), output T if it is greater than or equal to 20% and F if not.

Field: example entries. Status: answers known.
- COMPOUND: "Cc1cn(-c2cc(NC(=O)c3ccc(C)c(Nc4nccc(-c5cccnc5)n4)c3)cc(C(F)(F)F)c2)cn1"
  LABEL VALUE: "T"
- COMPOUND: "COc1ccc(-c2ccc3c(N4CCOCC4)nc(N4C[C@@H](C)O[C@@H](C)C4)nc3n2)cc1CO"
  LABEL VALUE: "T"
- COMPOUND: "O=C(Nc1ccc(-c2ccnc(Nc3ccc(N4CCOCC4)cc3)n2)cc1)[C@@H]1CCCN1"
  LABEL VALUE: "F"

Then this compound:
API: above_or_equal(metric=Population Tubulin-Different-Phenotype (%), cutoff=20%) for item CCCS(=O)(=O)Nc1ccc(F)c(C(=O)c2c[nH]c3ncc(Cl)cc23)c1F T

* * *

In this section, each of the molecules is paired with its reported Population Normal (%).
- Test system: U2OS
- PROTOCOL DESCRIPTION: Multiplex assay against U2OS
- Assay type: toxicity, cell-based
- CONDITION INFO: human, 12 h, 10 µM, compound concentration 10 uM, replicate 1
State just the number; it will be interpreted in %.

# count of solved cases: 6
- MOLECULE: "CCCS(=O)(=O)Nc1ccc(F)c(C(=O)c2c[nH]c3ncc(Cl)cc23)c1F [PLX-4720]"
  Population Normal (%): 96
- MOLECULE: "C=C1/C(=C\\C=C2/CCC[C@]3(C)[C@@H]([C@H](C)/C=C/[C@H](C)C(C)C)CC[C@@H]23)C[C@@H](O)C[C@@H]1O [DOXERCALCIFEROL]"
  Population Normal (%): 90
- MOLECULE: "COCC(=O)NC/C=C/c1ccc2ncnc(Nc3ccc(Oc4ccc(C)nc4)c(C)c3)c2c1 [CP-724714]"
  Population Normal (%): 86
- MOLECULE: "O=C(Nc1ccc(-n2nc(-c3cccnc3)cc2C(F)(F)F)cn1)c1ccc(-c2ccccc2)c(F)c1 [BI 2049]"
  Population Normal (%): 90
- MOLECULE: "COc1ccc(S(=O)(=O)N(CCO)c2ccccc2CN(C)C/C=C/c2ccc(Cl)cc2)cc1.O=P(O)(O)O"
  Population Normal (%): 94
- MOLECULE: "Cc1cn(-c2cc(NC(=O)c3ccc(C)c(Nc4nccc(-c5cccnc5)n4)c3)cc(C(F)(F)F)c2)cn1 [NILOTINIB]"
  Population Normal (%): 50

I would be grateful if you could share the reported Population Normal (%) for Cl.Oc1ccc2c3c1O[C@H]1c4[nH]c5c(c4C[C@@]4(O)[C@@H](C2)N(CC2CC2)CC[C@]314)C[C@@]1(O)[C@H]2Cc3ccc(O)c4c3[C@@]1(CCN2CC1CC1)[C@H]5O4 . 93

* * *

Known Population Normal (%) of a selection of compounds
- System: Fibroblast
- PROTOCOL DESCRIPTION: Multiplex assay against human fibroblast
- Assay type: toxicity, cell-based
- CONDITION INFO: 48 h, 1 µM, compound concentration 1 uM, replicate 1
Value expressed in %; do not type the unit.

Completed entries (count: 6):
- COMPOUND: "O=C1N/C(=N/c2ccccc2F)S/C1=C\\c1ccc(C(=O)O)cc1"
  Population Normal (%): 80
- COMPOUND: "COc1cc(N2CCN(C)CC2)ccc1Nc1ncc2c(n1)N(C)c1ccccc1C(=O)N2C"
  Population Normal (%): 85
- COMPOUND: "CN(C)C(=O)C(CCN1CCC(O)(c2ccc(Cl)cc2)CC1)(c1ccccc1)c1ccccc1.Cl [LOPERAMIDE HYDROCHLORIDE]"
  Population Normal (%): 85
- COMPOUND: "Cl.Oc1ccc2c3c1O[C@H]1c4[nH]c5c(c4C[C@@]4(O)[C@@H](C2)N(CC2CC2)CC[C@]314)C[C@@]1(O)[C@H]2Cc3ccc(O)c4c3[C@@]1(CCN2CC1CC1)[C@H]5O4"
  Population Normal (%): 83
- COMPOUND: "C=C1/C(=C\\C=C2/CCC[C@]3(C)[C@@H]([C@H](C)/C=C/[C@H](C)C(C)C)CC[C@@H]23)C[C@@H](O)C[C@@H]1O [DOXERCALCIFEROL]"
  Population Normal (%): 81
- COMPOUND: "CCc1cccc(CC)c1NC(=O)c1nn(C)c2c1CCc1cnc(Nc3ccc(C(=O)NC4CCN(C)CC4)cc3OC(F)(F)F)nc1-2"
  Population Normal (%): 84

Reported Population Normal (%) for CCCS(=O)(=O)c1nc(NC2CC2)cc(-c2ccc3c(ccn3C3CC(C)(C)NC(C)(C)C3)c2)n1 : what is it? 79

What about CCOC(=O)c1c(C)[nH]c2ccc3c(c12)CN1CCc2cc(OC)ccc2C1O3 (stereo not given) ? 85

Try this compound too: S=C(NCCCc1c[nH]cn1)NCCCN(Cc1ccc(Cl)c(Cl)c1)c1ccc(Br)cn1 79

How about O=C(Cc1ccc(-c2ccc(OCCN3CCOCC3)cc2)cn1)NCc1ccccc1 [TIRBANIBULIN] ? 85

* * *

# maps each entry to its Population Mitochondria Different-Phenotype (%)
- System: U2OS
- PROTOCOL DESCRIPTION: Multiplex assay against U2OS
- Assay type: toxicity, cell-based
- CONDITION INFO: human, 48 h, 1 µM, compound concentration 1 uM, replicate 1
State just the number; it will be interpreted in %.

// worked examples, Population Mitochondria Different-Phenotype (%) included
- COMPOUND: "CCCS(=O)(=O)c1nc(NC2CC2)cc(-c2ccc3c(ccn3C3CC(C)(C)NC(C)(C)C3)c2)n1"
  MEASURED: 15
- COMPOUND: "CCCn1c(=O)c2[nH]c(-c3cnn(Cc4cccc(C(F)(F)F)c4)c3)nc2n(CC)c1=O"
  MEASURED: 11
- COMPOUND: "CN1CCC(=C2c3ccccc3CC(=O)c3sccc32)CC1.O=C(O)/C=C/C(=O)O [KETOTIFEN FUMARATE]"
  MEASURED: 13

Using the record for Cc1ccc(C(=O)Nc2cccc(C(F)(F)F)c2)cc1Nc1nc(-c2cccnc2)nc2c1cnn2C , report its Population Mitochondria Different-Phenotype (%). 22
